// values below are reported solubility
test: Solubility was determined; type: physicochemical

Example entries begin here.
{"columns": ["Smiles Structure", "solubility"],
 "data": [
  ["Clc1ccc(Nc2ccnc3ccc4c[nH]nc4c23)cc1", "< 6000 µg/mL"],
  ["Cc1cc(Nc2ccc(OCC3CCCCC3)cc2)c2c(ccc3c[nH]nc32)n1", "< 6000 µg/mL"],
  ["CCCc1ccc(Nc2cc(C)nc3ccc4c[nH]nc4c23)cc1", "> 6000 µg/mL"],
  ["CCCCOc1ccc(Nc2cc(C)nc3ccc4c[nH]nc4c23)cc1", "< 6000 µg/mL"],
  ["Cc1cc(NC2CCCCC2)c2c(ccc3c[nH]nc32)n1", "≥ 25000 µg/mL"],
  ["CCCCOc1ccc(Nc2ccnc3ccc4c[nH]nc4c23)cc1", "> 6000 µg/mL"],
  ["CCc1ccc(Nc2cc(C)nc3ccc4c[nH]nc4c23)cc1", "> 6000 µg/mL"],
  ["c1cc(Nc2ccc(OCC3CCCCC3)cc2)c2c(ccc3c[nH]nc32)n1", "< 6000 µg/mL"],
  ["Cc1ccc(Nc2cc(C)nc3ccc4c[nH]nc4c23)cc1", "< 6000 µg/mL"],
  ["Cc1cc(Nc2ccc(Cl)cc2)c2c(ccc3c[nH]nc32)n1", "< 6000 µg/mL"]
]}

Q: Need solubility of c1cc(NC2CCCCC2)c2c(ccc3c[nH]nc32)n1 , thanks.
Ans: ≥ 25000 µg/mL

Q: Need solubility of Cc1cc(Nc2ccc(OCc3ccccc3)cc2)c2c(ccc3c[nH]nc32)n1 , thanks.
Ans: < 6000 µg/mL

Q: Need solubility of CCCCc1ccc(Nc2ccnc3ccc4c[nH]nc4c23)cc1 , thanks.
Ans: > 6000 µg/mL

Just for reference, ChEMBL document CHEMBL1159173 is where these values come from.
